- tested-system: human recombinant α-syn fibrils (Homo sapiens, UniProt P37840)
- protocol-text: Competition binding assay against [3H]DCVJ, α-syn fibrils
- details: non-radioactive ligand vs [3H]DCVJ 10 nM, α-syn fibrils 125 nM, 2 h 37°C
Ki values, listed per item
Numbers only; they are read as nM.

Past entries and their recorded results:
[
  {
    "compound": "COc1ccc(-c2csc(-c3nc(-c4cnc5c(c4)OCO5)cs3)n2)cc1F",
    "tested-system": "human recombinant α-syn fibrils (Homo sapiens, UniProt P37840)",
    "Ki, nM": 0.66
  },
  {
    "compound": "COc1ccc(-c2csc(-c3nc(-c4ccc5c(c4)OCO5)cs3)n2)cc1F [d2]",
    "tested-system": "human recombinant α-syn fibrils (Homo sapiens, UniProt P37840)",
    "Ki, nM": 1.22
  }
]

The compound `Fc1ccc(-c2csc(-c3nc(-c4ccc5c(c4)OCO5)cs3)n2)cn1` on human recombinant α-syn fibrils (Homo sapiens, UniProt P37840): Ki was 1.21

Measured on human recombinant α-syn fibrils (Homo sapiens, UniProt P37840), `Fc1ccc(-c2csc(-c3nc(-c4cnc5c(c4)OCO5)cs3)n2)cn1` has a documented Ki of 0.1

src = paper PMC9099256
